Test system: MALME-3M melanoma
Test: NCI tumour cell line growth inhibition, 48 h
QUANTITY_NAME: TGI

{"COMPOUND": "NS(=O)(=O)c1c(O)c2ccccc2oc1=O", "TGI": "> 100 µM"}
{"COMPOUND": "C/C=C1/C=CC2c3[nH]c4ccccc4c3CCN2C1 (stereo unspecified)", "TGI": "> 400 µM"}
{"COMPOUND": "COc1ccc(C(C)Nc2cc(OC)c(OC)c(OC)c2)cc1 (stereo unspecified)", "TGI": "> 29.7 µM"}

Need TGI, item COc1ccc(OC/C(N)=N/NC(=O)c2ccncc2)cc1
> 100 µM

Need TGI, item CC(C)(CCCCC(C)(C)NC1=NCCO1)NC1=NCCO1
> 10 µM

Need TGI, item O=c1c(Oc2ccc(F)cc2F)cc2cnc(NC3CCOCC3)nc2n1C1CC1
> 25 µM

Need TGI, item O=C(OC1OC2COC(=O)c3cc(O)c(O)c(O)c3-c3c(cc(O)c(O)c3O)C(=O)OC3C2OC(=O)[C@@]24CC(=O)[C@@](O)(OC25C(=O)O[C@H]2[C@@H](O)CO[C@@]25O)C2(O)Oc5c(O)c(O)cc(c5C24)C(=O)OC13)c1cc(O)c(O)c(O)c1 (stereo partly specified)
> 100 µM

Need TGI, item Cc1nc2ccc(S(=O)(=O)O)cc2c(=O)n1-c1ccc(C(=O)NN2C(=O)C(Cl)C2c2cccs2)cc1 (stereo unspecified)
> 100 µM

Need TGI, item CCOC(OCC)(OCC)C(Br)CC (stereo unspecified)
> 100 µM

Need TGI, item COC(=O)C1=C(OC)C(=P2(c3ccccc3)CC(c3ccccc3)=C2c2ccccc2)C(C(=O)OC)=C1C(=O)OC (stereo unspecified)
> 78.2 µM

Need TGI, item CC(C)(C)n1c(=O)n2c(-c3ccccc3)c(-c3ccccc3)n2c1=O
> 100 µM
